Taken from ChEMBL document CHEMBL4325925.

EXPERIMENTAL SYSTEM: Serine/threonine-protein kinase TAO1 (Homo sapiens, UniProt Q7L7X3)
Sequence (Q7L7X3 whole entry): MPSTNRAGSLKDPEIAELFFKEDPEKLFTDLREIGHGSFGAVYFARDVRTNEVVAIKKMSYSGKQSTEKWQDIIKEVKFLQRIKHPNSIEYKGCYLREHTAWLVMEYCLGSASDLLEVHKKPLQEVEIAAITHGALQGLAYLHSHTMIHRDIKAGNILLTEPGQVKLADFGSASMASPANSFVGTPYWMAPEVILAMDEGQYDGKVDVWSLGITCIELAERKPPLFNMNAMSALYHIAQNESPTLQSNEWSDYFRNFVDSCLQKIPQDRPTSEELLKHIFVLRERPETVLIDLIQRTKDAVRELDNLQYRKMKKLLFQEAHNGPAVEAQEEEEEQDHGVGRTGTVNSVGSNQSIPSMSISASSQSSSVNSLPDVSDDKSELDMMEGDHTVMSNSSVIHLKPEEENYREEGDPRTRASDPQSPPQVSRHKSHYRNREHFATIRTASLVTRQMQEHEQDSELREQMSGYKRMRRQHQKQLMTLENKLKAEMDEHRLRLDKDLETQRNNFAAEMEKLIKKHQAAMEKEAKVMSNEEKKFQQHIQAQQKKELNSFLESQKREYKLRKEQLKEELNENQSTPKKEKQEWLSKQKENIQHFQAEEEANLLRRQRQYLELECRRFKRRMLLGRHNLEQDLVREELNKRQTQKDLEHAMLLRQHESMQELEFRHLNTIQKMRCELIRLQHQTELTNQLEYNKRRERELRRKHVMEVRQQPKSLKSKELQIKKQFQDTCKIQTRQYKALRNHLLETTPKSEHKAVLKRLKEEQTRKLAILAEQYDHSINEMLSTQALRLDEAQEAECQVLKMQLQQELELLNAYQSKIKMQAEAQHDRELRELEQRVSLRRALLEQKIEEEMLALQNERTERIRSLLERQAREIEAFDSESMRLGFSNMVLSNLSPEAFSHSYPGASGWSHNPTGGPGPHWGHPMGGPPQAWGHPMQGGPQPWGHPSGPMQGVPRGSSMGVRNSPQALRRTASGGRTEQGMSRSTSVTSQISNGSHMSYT
TEST SUMMARY: Inhibition recombinant human TAOK1 (1 to 356 residues) after 5 mins in presence of [33P] ATP by Topcount method
REPORTED PROPERTY: IC50 (nM)
The response must be a number in nM with no trailing unit.

Bench note: what IC50 did `c1cnc2ncn(-c3cc(Nc4ccc(OCCN5CCCCC5)cn4)ncn3)c2c1` show? 490

----------
Values of pIC50 reported for Pirin (Homo sapiens, UniProt O00625) appear below.
pIC50: −log10 of the molar value.

Study these solved cases before continuing.
SMILES STRUCTURE	pIC50
CC(C)(C)N1CCN(Cc2ccc3cc(C(=O)Nc4cc(NC(=O)c5ccc6c(c5)OCCO6)ccc4Cl)ccc3n2)CC1	7.48
Cc1ccc(NC(=O)c2cccc(C(C)(C)C#N)c2)cc1Nc1ccc2ncn(C)c(=O)c2c1	< 5.00
N#Cc1c(Oc2ccc(F)c(NC(=O)Cc3cccc(C(F)(F)F)c3)c2)ccc2nc(NC(=O)C3CC3)sc12	< 5.00
OCCn1cc(-c2ccc3c(c2)CC/C3=N\O)c(-c2ccncc2)n1	< 5.00

# lookup: pIC50 of `CC(C)(C)c1nc(-c2cccc(NS(=O)(=O)c3c(F)cccc3F)c2F)c(-c2ccnc(N)n2)s1` < 5.00
